Reported Amount adhered (fluorescence intensity) values are given for each entry in this list.
- System: human normal lymphocytes adhering to vascular endothelial cells of the normal human umbilical cord
- Assay Method Text: inhibition of adhesion of human normal lymphocytes to rhIL1β-stimulated vascular endothelial cells, oily emulsion
- Type: cell-based
- Condition Context: 20 μg/ml equivalent, rhIL1β 200 U/ml, 485 nm/535 nm

A selection of reference data follows.
CCCCCCCCCCCCCCC(CCCCCCCCCCCCCC)C(=O)Nc1ccc(COCCOCCO[C@@H]2O[C@H](CO)[C@@H](O[C@@H]3O[C@H](CO)[C@H](O)[C@H](O[C@]4(C(=O)O)C[C@H](O)[C@@H](NC(C)=O)[C@H]([C@H](O)[C@H](O)CO)O4)[C@H]3O)[C@H](O[C@@H]3O[C@@H](C)[C@@H](O)[C@@H](O)[C@@H]3O)[C@H]2O)cc1	9773
CCCCCCCCCCCCC/C=C/[C@@H](O)[C@H](CO[C@@H]1O[C@H](CO)[C@@H](O[C@@H]2O[C@H](CO)[C@H](O)[C@H](O[C@@H]3O[C@H](CO)[C@@H](O[C@@H]4O[C@H](CO)[C@H](O)[C@H](O[C@]5(C(=O)O)C[C@H](O)[C@@H](NC(C)=O)[C@H]([C@H](O)[C@H](O)CO)O5)[C@H]4O)[C@H](O[C@@H]4O[C@@H](C)[C@@H](O)[C@@H](O)[C@@H]4O)[C@H]3NC(C)=O)[C@H]2O)[C@H](O)[C@H]1O)NC(=O)CCCCCCCCCCCCCCCCC [2→3 sialyl Le^x, reference compound]	9320

API: the following record is the query input.
Req: Output Amount adhered (fluorescence intensity) of CCCCCCCCCCCCCCC(CCCCCCCCCCCCCC)C(=O)Nc1ccc(COCCOCCOCCOCCOCCO[C@@H]2O[C@H](CO)[C@@H](O[C@@H]3O[C@H](CO)[C@H](O)[C@H](O[C@]4(C(=O)O)C[C@H](O)[C@@H](NC(C)=O)[C@H]([C@H](O)[C@H](O)CO)O4)[C@H]3O)[C@H](O[C@@H]3O[C@@H](C)[C@@H](O)[C@@H](O)[C@@H]3O)[C@H]2O)cc1
Resp: 10324

---

Reported Amount of Colo 201 cells adhered (fluorescence intensity) values are given for each entry in this list.
- Test system: Colo 201 cancer cells adhering to vascular endothelial cells of the normal human umbilical cord
- Assay Method Text: inhibition of adhesion of Colo 201 cancer cells to rhIL1β-stimulated vascular endothelial cells, liposome dispersion
- Format: cell-based
- Condition Context: 11.8 μM equivalent, rhIL1β 200 U/ml, 485 nm
- Experimental: A solution of 200 μg of phosphatidylcholine, 100 μg of cholesterol, 7.5 μg of dicetyl phosphate and 50 μg of a compound of the invention in a mixture of chloroform/methanol=2/1 (ca. 1 ml) was evaporated under reduced pressure to dryness followed by addition of 0.25 ml of a phosphate-buffered saline solution. […] Amount adhered and % inhibition of adhesion of Colo 201 cancer cells as measured from fluorescence intensity are shown in Table 2 below.
In your answer, state the number alone without any accompanying words.

A selection of reference data follows.
CCCCCCCCCCCCCCC(CCCCCCCCCCCCCC)C(=O)Nc1ccc(COCCOCCOCCO[C@@H]2O[C@H](CO)[C@@H](O[C@@H]3O[C@H](CO)[C@H](O)[C@H](O[C@]4(C(=O)O)C[C@H](O)[C@@H](NC(C)=O)[C@H]([C@H](O)[C@H](O)CO)O4)[C@H]3O)[C@H](O[C@@H]3O[C@@H](C)[C@@H](O)[C@@H](O)[C@@H]3O)[C@H]2O)cc1 [Compound 5B]	212789
CCCCCCCCCCCCCCC(CCCCCCCCCCCCCC)C(=O)Nc1ccc(CO[C@@H]2O[C@H](CO)[C@@H](O[C@@H]3O[C@H](CO)[C@H](O)[C@H](O[C@]4(C(=O)O)C[C@H](O)[C@@H](NC(C)=O)[C@H]([C@H](O)[C@H](O)CO)O4)[C@H]3O)[C@H](O[C@@H]3O[C@@H](C)[C@@H](O)[C@@H](O)[C@@H]3O)[C@H]2O)cc1 [Compound 5E, reference compound]	595253
CCCCCCCCCCCCCCC(CCCCCCCCCCCCCC)C(=O)Nc1ccc(COCCOCCO[C@@H]2O[C@H](CO)[C@@H](O[C@@H]3O[C@H](CO)[C@H](O)[C@H](O[C@]4(C(=O)O)C[C@H](O)[C@@H](NC(C)=O)[C@H]([C@H](O)[C@H](O)CO)O4)[C@H]3O)[C@H](O[C@@H]3O[C@@H](C)[C@@H](O)[C@@H](O)[C@@H]3O)[C@H]2O)cc1 [Compound 5A]	246293

API: the following record is the query input.
Req: Output Amount of Colo 201 cells adhered (fluorescence intensity) of CCCCCCCCCCCCCCC(CCCCCCCCCCCCCC)C(=O)Nc1ccc(COCCOCCOCCOCCOCCO[C@@H]2O[C@H](CO)[C@@H](O[C@@H]3O[C@H](CO)[C@H](O)[C@H](O[C@]4(C(=O)O)C[C@H](O)[C@@H](NC(C)=O)[C@H]([C@H](O)[C@H](O)CO)O4)[C@H]3O)[C@H](O[C@@H]3O[C@@H](C)[C@@H](O)[C@@H](O)[C@@H]3O)[C@H]2O)cc1 [Compound 5D]
Resp: 240554
